Cited source: paper PMC12416277

Molecular target: NPC1 (Homo sapiens)
Sequence (O15118 23-1278): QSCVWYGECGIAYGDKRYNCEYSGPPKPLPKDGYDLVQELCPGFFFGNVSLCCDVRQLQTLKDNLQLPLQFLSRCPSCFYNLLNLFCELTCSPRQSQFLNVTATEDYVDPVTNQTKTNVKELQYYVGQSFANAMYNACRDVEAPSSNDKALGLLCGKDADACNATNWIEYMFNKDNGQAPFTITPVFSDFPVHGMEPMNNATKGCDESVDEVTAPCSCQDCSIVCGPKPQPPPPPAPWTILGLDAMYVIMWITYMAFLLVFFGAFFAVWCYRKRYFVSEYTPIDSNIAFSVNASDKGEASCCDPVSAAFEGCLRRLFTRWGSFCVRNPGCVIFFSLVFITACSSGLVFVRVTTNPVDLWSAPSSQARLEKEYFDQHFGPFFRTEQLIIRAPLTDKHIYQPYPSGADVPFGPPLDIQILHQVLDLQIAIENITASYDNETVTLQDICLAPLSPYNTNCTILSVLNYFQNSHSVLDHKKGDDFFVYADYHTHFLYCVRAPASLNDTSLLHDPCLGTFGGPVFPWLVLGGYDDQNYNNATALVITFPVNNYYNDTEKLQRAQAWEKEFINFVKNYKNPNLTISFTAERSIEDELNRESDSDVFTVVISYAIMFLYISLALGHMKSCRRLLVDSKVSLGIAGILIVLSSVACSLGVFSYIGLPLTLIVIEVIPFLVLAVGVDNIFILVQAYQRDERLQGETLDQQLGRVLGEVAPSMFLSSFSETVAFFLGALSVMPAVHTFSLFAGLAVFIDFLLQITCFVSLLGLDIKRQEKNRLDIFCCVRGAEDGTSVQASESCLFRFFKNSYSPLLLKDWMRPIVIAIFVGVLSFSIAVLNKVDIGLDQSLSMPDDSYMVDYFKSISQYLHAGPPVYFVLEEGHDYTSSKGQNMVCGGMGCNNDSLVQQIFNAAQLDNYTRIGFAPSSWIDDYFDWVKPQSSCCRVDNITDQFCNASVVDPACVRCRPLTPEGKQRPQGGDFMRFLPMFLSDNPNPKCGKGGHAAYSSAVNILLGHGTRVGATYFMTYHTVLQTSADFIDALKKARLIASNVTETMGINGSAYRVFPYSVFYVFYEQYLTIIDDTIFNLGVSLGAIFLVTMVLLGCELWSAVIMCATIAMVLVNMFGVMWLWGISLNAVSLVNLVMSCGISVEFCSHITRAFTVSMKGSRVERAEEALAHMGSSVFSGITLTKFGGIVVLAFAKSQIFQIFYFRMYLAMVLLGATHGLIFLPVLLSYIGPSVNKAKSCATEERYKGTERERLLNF
Type: binding
Settings: […]; read-out: SPR KD
MEASURED PROPERTY: pKd
Answers are plain numbers, as −log10 of the molar value.

QUERY: Write down pKd measured for item CCC(C)n1ncn(-c2ccc(N3CCN(c4ccc(OCC5COC(Cn6cncn6)(c6ccc(Cl)cc6Cl)O5)cc4)CC3)cc2)c1=O (stereo not shown)
RESULT: 5.06

---

I'd appreciate it if you could supply EC50 values for the items below.
Test system: HSV-1
Assay: microbe, parasite or virus in culture
Format: cell-based, herpes simplex virus 1 (HSV-1)
Details: Human alphaherpesvirus 1, L929
One number for each entry, in µM.

Some solved cases for reference:
>>> df
                                   molecule  readout_unit  numeric_value
0  COc1cc2c3cc1Oc1c(OC)c(OC)cc4c1[C@@H](Cc1ccc(O)c(c1)Oc1ccc(cc1)C[C@@H]3N(C)CC2)N(C)CC4 [Bbm, berbamine]            µM           0.36
1  COc1ccc2cc1Oc1ccc(cc1)C[C@H]1c3cc(c(OC)cc3CCN1C)Oc1c(OC)c(OC)cc3c1[C@H](C2)N(C)CC3 [Tet, tetrandrine]            µM          0.132
2  COc1ccc2cc1Oc1ccc(cc1)C[C@H]1c3c(cc4c(c3Oc3cc5c(cc3OC)CCN(C)[C@@H]5C2)OCO4)CCN1C [Cep, cepharanthine]            µM          0.569

QUERY: Write down EC50 measured for item COc1ccc2cc1Oc1ccc(cc1)C[C@H]1c3cc(c(OC)cc3CCN1C)Oc1c(O)c(OC)cc3c1[C@H](C2)N(C)CC3 [Fan, fangchinoline]
RESULT: 2.32

---

Target: NPC1 (Homo sapiens)
Assay type: binding
Details: read-out: SPR KD
MEASURED PROPERTY: pKd
One number for each entry, as −log10 of the molar value.

QUERY: Write down pKd measured for item COc1ccc2cc1Oc1ccc(cc1)C[C@H]1c3cc(c(OC)cc3CCN1C)Oc1c(OC)c(OC)cc3c1[C@H](C2)N(C)CC3
RESULT: 4.65

---

Test system: H1N1
Assay: Dose-response of infectivity, H1N1 in A549 cells (viral mRNA by qRT-PCR)
Assay type: cell-based
Settings: Influenza A virus; A549 cells, H1N1; read-out: EC50
MEASURED PROPERTY: pEC50
Answers are plain numbers, as −log10 of the molar value.

QUERY: Write down pEC50 measured for item COc1ccc2cc1Oc1ccc(cc1)C[C@H]1c3cc(c(OC)cc3CCN1C)Oc1c(OC)c(OC)cc3c1[C@H](C2)N(C)CC3 [Tet, tetrandrine]
RESULT: 6.48
